# assay: single intravenous dose pharmacokinetics in CD-1 mice
# Type: in vivo, mouse
# runConditions: both sexes, CD-1, mouse, plasma, iv, 5 mg/kg; mice; read-out: terminal half-life (converted)
quantityMeasured: half-life

Inquiry: Could you tell me which half-life is on file for CCOCc1cnc(Cl)nc1Oc1ccc2c(ccc3sc4c(c32)NC[C@@H](C)NC4=O)n1 ?
Reply text: ~7 h

---

# assay: 28- and 91-day toxicology studies in cynomolgus monkeys
# runConditions: cynomolgus monkey, in vivo, oral
quantityMeasured: NOAEL (mg/kg/day)
The answer is to be given in mg/kg/day; state only the numeric part.

Inquiry: Given the entry CCOCc1cnc(Cl)nc1Oc1ccc2c(ccc3sc4c(c32)NC[C@@H](C)NC4=O)n1 , report its measured NOAEL.
Reply text: 375

---

# assay: toxicokinetics, 28-day monkey study
# Assay type: in vivo, cynomolgus monkey
# runConditions: male, cynomolgus monkey, plasma, po, 150 mg/kg/day, monkey, Study Day 21, male, 150 mg/kg/day
quantityMeasured: Cmax (ng/mL)
# value in ng/mL; strip the unit string

Inquiry: Recorded Cmax of CCOCc1cnc(Cl)nc1Oc1ccc2c(ccc3sc4c(c32)NC[C@@H](C)NC4=O)n1 [Compound 1] , please.
Reply text: 674

---

# assay: toxicokinetics, 28-day mouse study;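 as to AUC: AUC to the last measurable time point (AUClast)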
# Type: in vivo
# runConditions: female, Crl:CD1 (ICR), mouse, plasma, po, 100 mg/kg/day, mice, Study Day 1, female, 100 mg/kg/day
quantityMeasured: AUC (ng·h/mL)
Numbers only here, please. The scale is ng·h/mL.

Inquiry: Could you tell me which AUC is on file for CCOCc1cnc(Cl)nc1Oc1ccc2c(ccc3sc4c(c32)NC[C@@H](C)NC4=O)n1 [Compound 1] ?
Reply text: 40100

---

# assay: toxicokinetics, single dose and 14-day monkey study
# Type: in vivo
# runConditions: cynomolgus monkey, plasma, po, 500 mg/kg, monkeys, 500 mg/kg, fasted; read-out: Mean Day 1 AUC0-t
quantityMeasured: AUC(0-t) (ng·h/mL)
Unit ng·h/mL implied. Number only.

Inquiry: Recorded AUC(0-t) of CCOCc1cnc(Cl)nc1Oc1ccc2c(ccc3sc4c(c32)NC[C@@H](C)NC4=O)n1 , please.
Reply text: 14300

---

# assay: toxicokinetics, single dose and 14-day monkey study
# Assay type: in vivo
# runConditions: cynomolgus monkey, plasma, po, 375 mg/kg/day, monkeys, fasted, 375 mg/kg/day; read-out: Mean Day 14 AUC0-t
quantityMeasured: AUC(0-t) (ng·h/mL)
Supply the numeric figure in ng·h/mL, leaving out any unit text.

Inquiry: What value of measured AUC(0-t) is listed for CCOCc1cnc(Cl)nc1Oc1ccc2c(ccc3sc4c(c32)NC[C@@H](C)NC4=O)n1 [Compound 1] ?
Reply text: 5510

---

# assay: toxicokinetics, 28-day mouse study;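 as to AUC: AUC to the last measurable time point (AUClast)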
# Format: in vivo
# runConditions: male, Crl:CD1 (ICR), mouse, plasma, po, 15 mg/kg/day, mice, Study Day 1, male, 15 mg/kg/day
# Text: There were no notable sex-related differences in Compound 1 exposure. Additionally, toxicokinetic animals received the vehicle or compound in the same manner and dose levels as the main study groups.
quantityMeasured: AUC
The number alone won't do; follow it with the unit.

Inquiry: Quick one: AUC of CCOCc1cnc(Cl)nc1Oc1ccc2c(ccc3sc4c(c32)NC[C@@H](C)NC4=O)n1 [Compound 1] ?
Reply text: 4410 ng·h/mL

---

# assay: single oral dose pharmacokinetics in cynomolgus monkeys
# Assay type: in vivo, cynomolgus monkey
# runConditions: cynomolgus monkey, plasma; monkey, female, single oral 150 mg/kg
quantityMeasured: AUC (ng·h/mL)
Only the number, expressed in ng·h/mL, is required.

Inquiry: What measured AUC goes with CCOCc1cnc(Cl)nc1Oc1ccc2c(ccc3sc4c(c32)NC[C@@H](C)NC4=O)n1 [Compound 1] ?
Reply text: 4750

---

# assay: single oral dose pharmacokinetics in Sprague Dawley rats
# Type: in vivo
# runConditions: Sprague Dawley, plasma; rat, female, single oral 30 mg/kg
quantityMeasured: AUC (ng·h/mL)
All answers are understood in ng·h/mL, so give the number only.

Inquiry: // AUC lookup, key: CCOCc1cnc(Cl)nc1Oc1ccc2c(ccc3sc4c(c32)NC[C@@H](C)NC4=O)n1
Reply text: 5940

---

# assay: toxicokinetics, 28-day mouse study
# Format: in vivo
# runConditions: female, Crl:CD1 (ICR), mouse, plasma, po, 100 mg/kg/day, mice, Study Day 21, female, 100 mg/kg/day
quantityMeasured: Cmax (ng/mL)
# value in ng/mL; strip the unit string

Inquiry: Give its Cmax value. Item: CCOCc1cnc(Cl)nc1Oc1ccc2c(ccc3sc4c(c32)NC[C@@H](C)NC4=O)n1 [Compound 1]
Reply text: 12300

---

# assay: single intravenous dose pharmacokinetics in Sprague Dawley rats
# Type: in vivo
# runConditions: plasma, rat, female, single IV 5 mg/kg
quantityMeasured: AUC(0-inf)

Inquiry: Given the entry CCOCc1cnc(Cl)nc1Oc1ccc2c(ccc3sc4c(c32)NC[C@@H](C)NC4=O)n1 , report its measured AUC(0-inf).
Reply text: 3960 ng·h/mL

---

# assay: single oral dose pharmacokinetics in cynomolgus monkeys
# Type: in vivo, cynomolgus monkey
# runConditions: cynomolgus monkey, plasma; monkey, female, single oral 375 mg/kg
quantityMeasured: Cmax (ng/mL)
Use ng/mL as the unit, but write only the number.

Inquiry: For the compound CCOCc1cnc(Cl)nc1Oc1ccc2c(ccc3sc4c(c32)NC[C@@H](C)NC4=O)n1 , what Cmax is on record?
Reply text: 2530

---

# assay: toxicokinetics, 28-day mouse study
# Format: in vivo
# runConditions: male, Crl:CD1 (ICR), mouse, plasma, po, 15 mg/kg/day, mice, Study Day 1, male, 15 mg/kg/day
quantityMeasured: Cmax (ng/mL)
# unit: ng/mL | format: bare number

Inquiry: Name the reported Cmax value associated with the compound CCOCc1cnc(Cl)nc1Oc1ccc2c(ccc3sc4c(c32)NC[C@@H](C)NC4=O)n1 [Compound 1]
Reply text: 2930

---

# assay: Phase 1 first in human study, pharmacokinetics
# Format: in vivo
# runConditions: human, plasma; single oral dose, 3 mg to 400 mg; read-out: terminal elimination half-life (t½), geometric mean
quantityMeasured: half-life

Inquiry: half-life lookup needed for CCOCc1cnc(Cl)nc1Oc1ccc2c(ccc3sc4c(c32)NC[C@@H](C)NC4=O)n1 , thanks.
Reply text: 1.66 to 6.95 h

---

# assay: toxicokinetics, 28-day mouse study;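 as to AUC: AUC to the last measurable time point (AUClast)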
# Assay type: in vivo
# runConditions: male, Crl:CD1 (ICR), mouse, plasma, po, 100 mg/kg/day, mice, Study Day 1, male, 100 mg/kg/day
quantityMeasured: AUC (ng·h/mL)
Supply the numeric figure in ng·h/mL, leaving out any unit text.

Inquiry: Quick check: AUC of CCOCc1cnc(Cl)nc1Oc1ccc2c(ccc3sc4c(c32)NC[C@@H](C)NC4=O)n1 ?
Reply text: 29200

---

# assay: single intravenous dose pharmacokinetics in cynomolgus monkeys
# Type: in vivo
# runConditions: cynomolgus, cynomolgus monkey, plasma; monkey, male, single IV 5 mg/kg
quantityMeasured: AUC(0-inf) (ng·h/mL)
Response body: numeric value in ng·h/mL, unit text excluded.

Inquiry: So what does the record say about AUC(0-inf) for CCOCc1cnc(Cl)nc1Oc1ccc2c(ccc3sc4c(c32)NC[C@@H](C)NC4=O)n1 ?
Reply text: 1920

---

# assay: single intravenous dose pharmacokinetics in cynomolgus monkeys
# Type: in vivo
# runConditions: cynomolgus, cynomolgus monkey, plasma; monkey, female, single IV 5 mg/kg; read-out: t1/2,z (converted)
quantityMeasured: half-life (min)
Could you give me the number in min? Just the number is fine.

Inquiry: I have this molecule here, CCOCc1cnc(Cl)nc1Oc1ccc2c(ccc3sc4c(c32)NC[C@@H](C)NC4=O)n1 , and I need its recorded half-life.
Reply text: 58.8

---

# assay: single oral dose pharmacokinetics in cynomolgus monkeys
# Format: in vivo, cynomolgus monkey
# runConditions: both sexes, cynomolgus monkey, plasma, po; monkeys, doses in the range 15 to 375 mg/kg
quantityMeasured: bioavailability

Inquiry: What value of bioavailability has been recorded for this entry: CCOCc1cnc(Cl)nc1Oc1ccc2c(ccc3sc4c(c32)NC[C@@H](C)NC4=O)n1 [Compound 1]
Reply text: 8 to 28%

---

# assay: in vivo
# runConditions: HLA-B27/Huβ2m transgenic, rat, plasma, po, 20 mg/kg
quantityMeasured: AUC (ng·h/mL)
Number in ng·h/mL, nothing else.

Inquiry: Reported AUC, compound CCOCc1cnc(Cl)nc1Oc1ccc2c(ccc3sc4c(c32)NC[C@@H](C)NC4=O)n1 : ____
Reply text: 2820

---

# assay: toxicokinetics, single dose and 14-day monkey study
# Assay type: in vivo
# runConditions: cynomolgus monkey, plasma, po, 375 mg/kg, monkeys, 375 mg/kg, non-fasted; read-out: Mean Day 1 AUC0-t
quantityMeasured: AUC(0-t)
Answer format: number, then unit.

Inquiry: // query AUC(0-t) value for entry CCOCc1cnc(Cl)nc1Oc1ccc2c(ccc3sc4c(c32)NC[C@@H](C)NC4=O)n1 [Compound 1]
Reply text: 4060 ng·h/mL
